tested on: patient 1 tumor CR cells; experiment: Drug sensitivity assay; type: cell-based, Human; details: Homo sapiens, 72 h
pIC50: −log10 of the molar value.
ATTRIBUTE MEASURED: pIC50

CC(C)C[C@H](NC(=O)[C@H](CCc1ccccc1)NC(=O)CN1CCOCC1)C(=O)N[C@@H](Cc1ccccc1)C(=O)N[C@@H](CC(C)C)C(=O)[C@@]1(C)CO1	7.55

====

test system: patient 1 tumor CR cells; assay: Drug sensitivity assay; format: cell-based, Human; conditions: patient 1; IC50 comparison, 72 hour; P < .05 where significant
ATTRIBUTE MEASURED: Sensitivity of tumor-derived CR cells compared with benign CR cells

C[S+]([O-])CCCCN=C=S (centres unmarked)	more sensitive
CC(C)C[C@H](NC(=O)[C@H](Cc1ccccc1)NC(=O)c1cnccn1)B(O)O	more sensitive
CC(C)C[C@H](NC(=O)[C@H](CCc1ccccc1)NC(=O)CN1CCOCC1)C(=O)N[C@@H](Cc1ccccc1)C(=O)N[C@@H](CC(C)C)C(=O)[C@@]1(C)CO1	more sensitive
